Molecular target: Prostaglandin D2 receptor 2 (Homo sapiens, UniProt Q9Y5Y4)
Sequence (Q9Y5Y4 whole entry): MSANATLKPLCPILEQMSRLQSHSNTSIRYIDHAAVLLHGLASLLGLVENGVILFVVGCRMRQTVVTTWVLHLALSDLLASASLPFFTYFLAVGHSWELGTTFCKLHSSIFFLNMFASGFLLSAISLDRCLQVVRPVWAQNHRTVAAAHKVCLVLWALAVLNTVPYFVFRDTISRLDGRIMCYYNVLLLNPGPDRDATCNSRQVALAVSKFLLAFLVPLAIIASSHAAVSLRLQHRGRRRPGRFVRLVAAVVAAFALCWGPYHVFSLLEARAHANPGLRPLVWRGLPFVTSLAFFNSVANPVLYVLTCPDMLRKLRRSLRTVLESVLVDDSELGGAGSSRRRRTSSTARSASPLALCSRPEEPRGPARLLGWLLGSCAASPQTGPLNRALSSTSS
Assay: Antagonist activity at human CRTH2 receptor expressed in […] cells assessed as inhibition of beta arrestin translocation by bioluminescence resonance energy transfer assay
Assay type: functional, cell-based
readout-type: IC50 (µM)

[
  {
    "compound": "CS(=O)(=O)c1cccc(-c2nc(C(c3ccc(F)cc3)c3ccc(F)cc3)sc2CC(=O)O)c1",
    "tested-target": "Prostaglandin D2 receptor 2 (Homo sapiens, UniProt Q9Y5Y4)",
    "IC50, µM": 6.3
  },
  {
    "compound": "O=C(O)Cc1sc(CC(c2ccccc2)c2ccccc2)nc1-c1ccc(Cl)cc1",
    "tested-target": "Prostaglandin D2 receptor 2 (Homo sapiens, UniProt Q9Y5Y4)",
    "IC50, µM": 32
  }
]

[I] O=C(O)Cc1sc(C(c2ccc(F)cc2)c2ccc(F)cc2)nc1-c1cc(F)cc(F)c1
[II] N#Cc1ccc(-c2nc(C(c3ccc(F)cc3)c3ccc(F)cc3)sc2CC(=O)O)cc1
[III] O=C(O)Cc1sc(C(c2ccccc2)c2ccccc2)nc1-c1ccc(F)cc1
[IV] CC(=O)N1CCC(c2ccccc2)(c2nc(-c3ccc(Cl)cc3)c(CC(=O)O)s2)CC1
Arrange the 4 compounds from largest to smallest IC50. Form entry: labels listed in requested order. II, IV, I, III
(II: 1.5 µM, IV: 0.55 µM, I: 0.34 µM, III: 0.077 µM)
